Here, each record is paired with measured IC50 data.
- studySystem: UniProt P28571
- methodDescription: Glycine Uptake Inhibition Assay (mGlyT-1b)

inputSmiles	IC50 (nM)
COc1ccc(C(=O)N(CC(=O)Nc2cccc(Cl)c2)Cc2cc(Cl)cc(Cl)c2)cc1	243
O=C(CN(Cc1ccccc1Cl)C(=O)c1cc2ccccc2s1)Nc1cccc(C(F)(F)F)c1	60
COc1ccc(C(=O)N(CC(=O)Nc2cccc(Cl)c2)Cc2c(Cl)cccc2Cl)cc1	164
O=C(CN(Cc1ccccc1Cl)C(=O)c1ccc(Cl)cc1)Nc1cccc(F)c1	166

---

- studySystem: mGlyT-1b (Mus musculus, UniProt P28571)
- Construct: host or cells: Flp-in-CHO
- Sequence (P28571 1-651 isoform P28571-2): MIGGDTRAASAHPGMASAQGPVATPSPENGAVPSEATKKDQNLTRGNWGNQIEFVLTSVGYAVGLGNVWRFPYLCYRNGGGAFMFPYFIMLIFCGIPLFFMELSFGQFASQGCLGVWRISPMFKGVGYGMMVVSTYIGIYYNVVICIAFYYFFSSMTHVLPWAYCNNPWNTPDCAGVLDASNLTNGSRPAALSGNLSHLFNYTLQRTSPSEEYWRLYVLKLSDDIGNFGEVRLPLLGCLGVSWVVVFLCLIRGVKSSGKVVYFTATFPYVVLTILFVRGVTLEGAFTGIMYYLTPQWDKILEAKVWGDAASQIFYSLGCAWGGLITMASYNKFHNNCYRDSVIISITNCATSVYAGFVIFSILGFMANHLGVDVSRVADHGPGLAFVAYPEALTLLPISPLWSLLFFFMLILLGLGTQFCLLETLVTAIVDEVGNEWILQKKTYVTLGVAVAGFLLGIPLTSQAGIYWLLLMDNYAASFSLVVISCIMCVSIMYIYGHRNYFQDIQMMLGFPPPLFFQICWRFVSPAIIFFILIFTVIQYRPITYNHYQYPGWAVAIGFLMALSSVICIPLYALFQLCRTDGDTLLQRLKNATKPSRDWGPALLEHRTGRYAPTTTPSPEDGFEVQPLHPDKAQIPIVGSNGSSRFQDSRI
- methodDescription: Glycine Uptake Inhibition Assay (mGlyT-1b)
- Format: cell-based
Form field: IC50 (one value per entry).

inputSmiles	studySystem	IC50 (nM)
O=C(CN(C(=O)c1ccc(OC(F)(F)F)cc1)c1ccccc1)Nc1ccc(Cl)c(Cl)c1	mGlyT-1b (Mus musculus, UniProt P28571)	91
Cc1ccccc1CN(CC(=O)Nc1cccc(Cl)c1)C(=O)c1ccc(Cl)cc1	mGlyT-1b (Mus musculus, UniProt P28571)	209
O=C(CN(Cc1cccc(F)c1F)C(=O)c1ccc(Cl)cc1)Nc1cccc(Cl)c1	mGlyT-1b (Mus musculus, UniProt P28571)	74
O=C(CN(Cc1cc(F)cc(F)c1)C(=O)c1cc2ccccc2s1)Nc1cccc(F)c1	mGlyT-1b (Mus musculus, UniProt P28571)	70
O=C(CN(Cc1cc(F)cc(F)c1)C(=O)c1ccc(OC(F)(F)F)cc1)Nc1cccc(F)c1	mGlyT-1b (Mus musculus, UniProt P28571)	278
O=C(CN(Cc1cc(F)cc(F)c1)C(=O)c1ccc(Cl)cc1)Nc1cccc(Cl)c1	mGlyT-1b (Mus musculus, UniProt P28571)	184
O=C(CN(Cc1cccc(F)c1)C(=O)c1ccc(Cl)cc1)Nc1cccc(Cl)c1	mGlyT-1b (Mus musculus, UniProt P28571)	128
O=C(CN(Cc1ccccc1F)C(=O)c1ccc(Cl)cc1)Nc1cccc(Cl)c1	mGlyT-1b (Mus musculus, UniProt P28571)	74
